Tested on: Saccharomyces cerevisiae
Test Protocol: protein stability index of tFT-peptide fusion (C-terminal peptide) (PSI (0-1 scale)); higher = more stable (slower turnover);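 note: PSI is a weighted mean of sequencing reads over stability bins, variants kept only with over 10 reads, mCherry proximal and sfGFP distal, peptide attached via GGGS linker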
Test Conditions: genetic background: das1 deletion; temperature: 37 C
Think of 0.6 as a floor: if protein stability index stands on it or above, it is Met; beneath it, Not met.

INSERT INTO measurements (sequence_string, qualitative_label) VALUES
  ('LWGVGRQRNIAS', 'Met'),
  ('AALFNYVVCFCA', 'Not met'),
  ('RLWLPLSLVLWV', 'Not met'),
  ('RLPVMFWFVCSF', 'Met'),
  ('LVFFAYLIRGAL', 'Not met'),
  ('RPPPYSPRLFHN', 'Met'),
  ('GFVLMLLVRFEL', 'Not met'),
  ('RFHFAAPPHRPS', 'Met'),
  ('CFVWFSVVLLFA', 'Not met'),
  ('APPPVAPAPGSA', 'Met'),
  ('LSLFCFFLLVLF', 'Not met'),
  ('CHSICLVILEFI', 'Not met'),
  ('RAEASFFLPKVG', 'Met'),
  ('PPSPPLPPPSPF', 'Met'),
  ('CLAGALSWLRRG', 'Met'),
  ('IFFFQFLWFCLS', 'Not met'),
  ('WFLVLLFFWFLL', 'Met');

----------
Tested on: Saccharomyces cerevisiae
Test Protocol: protein stability index of tFT-peptide fusion (C-terminal peptide) (PSI (0-1 scale)); higher = more stable (slower turnover)
Test Conditions: genetic background: das1 deletion; temperature: 37 C
Think of 0.7 as a floor: if protein stability index stands on it or above, it is Condition met; beneath it, Condition not met.

INSERT INTO measurements (sequence_string, qualitative_label) VALUES
  ('LPPSPPCQSPAL', 'Condition met'),
  ('AGLLVLISWRLF', 'Condition not met'),
  ('LPAICFWCVLVG', 'Condition not met'),
  ('PFAGRLWVTSSF', 'Condition met'),
  ('GLGWLLFVVERV', 'Condition not met'),
  ('KKTKKTMIIKTT', 'Condition met'),
  ('VFFPCRLLPLLF', 'Condition not met'),
  ('VVRVSFSFCLSC', 'Condition not met'),
  ('GLVSCWIDPSMA', 'Condition met'),
  ('LLCLAVVLWFVV', 'Condition not met');

----------
Tested on: Saccharomyces cerevisiae
Test Protocol: protein stability index of tFT-peptide fusion (C-terminal peptide) (PSI (0-1 scale)); higher = more stable (slower turnover)
Test Conditions: genetic background: wild type; temperature: 30 C
Result Type: protein stability index

INSERT INTO results (sequence_string, endpoint_value) VALUES
  ('GAPWPLAVVAGP', 0.6),
  ('GRNLFGLLWARP', 0.721),
  ('GGGGGGFRVVVG', 0.705),
  ('KKRERNDKRGCQ', 0.652),
  ('GGGARSPSGCAN', 0.712),
  ('LSRELRFVGFYH', 0.318),
  ('FPPPPPPLTVLP', 0.728),
  ('SSSPLLDPPLPH', 0.68),
  ('LGTGRGAEGVIG', 0.791),
  ('GCRGVWGWVGRG', 0.74),
  ('HLYITGIIRKIT', 0.179),
  ('GISLTVTVRGWL', 0.496),
  ('VLSSPPVPAPRP', 0.701),
  ('PLGPSTQHPLSI', 0.687),
  ('VEVRVRCVGGRV', 0.703),
  ('EAVRASSPAGLP', 0.702),
  ('APRPRHFPTLPS', 0.812),
  ('CSFPTFRSLLLL', 0.3),
  ('APYSGSAMVIPG', 0.713);
